Below, each of the compounds is paired with its reported The number of cells in which neurites appeared/Total number of cells value.
# System: Mouse neuroblastoma cells NS-20Y
# test: Neurite appearance in mouse neuroblastoma NS-20Y cells (Table 8)
# Assay type: cell-based
# measurement-setup: 24 hour; 0.5 mM

>>> result("CCC1CCN(c2nccc(N3CCCC3=O)n2)CC1")
"17/50"
>>> result("O=C1CCCN1c1ccnc(N2CCSCC2)n1")
"9/50"
>>> result("CN(C(=O)c1ccc2ccccc2c1)c1ccnc(N2CCC(c3ccccc3)CC2)n1")
"3/50"
>>> result("O=C1CCCN1c1ccnc(N2CCCC2)n1")
"6/50"
>>> result("CC(=O)N1CCN(c2ccnc(N3CCCCC3)n2)CC1")
"5/50"
>>> result("CC(=O)c1ccc(C(=O)N(C)c2ccnc(N3CCCCC3)n2)cc1")
"3/50"
>>> result("CN(C(=O)c1ccc(O)cc1)c1ccnc(N2CCC(c3ccccc3)CC2)n1")
"3/50"
>>> result("O=C1CCCN1c1ccnc(N2CCCc3ccccc32)n1")
"6/50"
>>> result("COC(=O)c1ccc(C(=O)N(C)c2ccnc(N3CCCCC3)n2)cc1")
"5/50"
>>> result("CN(C(=O)c1ccc(S(=O)(=O)F)cc1)c1ccnc(N2CCC(c3ccccc3)CC2)n1")
"4/50"

Consider the record given below.
Consider the compound shown here: CN(C(=O)c1ccccc1)c1ccnc(N2CCc3ccccc32)n1 What is its recorded The number of cells in which neurites appeared/Total number of cells?
4/50

###

Below, each of the compounds is paired with its reported Estimated LD50 value.
# Tested on: mouse
# test: Acute toxicity in mouse (Table 10)
# Assay type: in vivo
# measurement-setup: i.p., 24 hours after administration

# count of solved cases: 3
>>> result("O=C1CCCN1c1ccnc(N2CCC(Cc3ccccc3)CC2)n1 [Compound 368]")
"> 500 mg/kg"
>>> result("O=C1CCCN1c1ccnc(N2CCOCC2)n1 [Compound 392]")
"> 500 mg/kg"
>>> result("CCC1CCN(c2nccc(N3CCCC3=O)n2)CC1 [Compound 312]")
"> 500 mg/kg"

Consider the compound shown here: O=C1CCCN1c1ccnc(N2CCCC2)n1 [Compound 320] What is its recorded Estimated LD50?
> 500 mg/kg

Now the compound O=C1CCCCN1c1ccnc(N2CCC(c3ccccc3)CC2)n1 [Compound 296]
> 1000 mg/kg

Now the compound O=C1CCCN1c1ccnc(N2CCc3ccccc3C2)n1 [Compound 352]
> 500 mg/kg

Now the compound CCOC(=O)C1CCN(c2nccc(N3CCCC3=O)n2)CC1 [Compound 376]
> 500 mg/kg

Now the compound O=C(c1ccccc1)N1CCN(c2ccnc(N3CCC(c4ccccc4)CC3)n2)CC1 [Compound 248]
> 1000 mg/kg

Now the compound O=C1CCCN1c1ccnc(N2CCN(c3ccccc3)CC2)n1 [Compound 416]
> 500 mg/kg

Now the compound CCCCN(CCCC)c1nccc(N2CCCC2=O)n1 [Compound 440]
> 500 mg/kg

###

Below, each of the compounds is paired with its reported Estimated LD50 value.
# Tested on: mouse
# test: Acute toxicity in mouse (Table 10)
# Type: in vivo
# measurement-setup: in vivo, ip

# count of solved cases: 4
>>> result("CC1CCCCN1c1nccc(N2CCCC2=O)n1 (stereo not shown)")
"250 to 500 mg/kg"
>>> result("CC1CCN(c2nccc(N3CCCC3=O)n2)CC1")
"250 to 500 mg/kg"
>>> result("O=C(c1ccccc1)N1CCN(c2ccnc(N3CCCCC3)n2)CC1")
"> 1000 mg/kg"
>>> result("CN(C(=O)C12CC3CC(CC(C3)C1)C2)c1ccnc(N2CCC(c3ccccc3)CC2)n1")
"500 to 1000 mg/kg"

Consider the compound shown here: CC(=O)c1ccc(C(=O)N(C)c2ccnc(N3CCC(c4ccccc4)CC3)n2)cc1 What is its recorded Estimated LD50?
> 1000 mg/kg

Now the compound O=C1CCCN1c1ccnc(N2CCCCC2)n1 [Compound 272]
250 to 500 mg/kg

Now the compound CC(=O)N(C)c1ccnc(N2CCSCC2)n1
500 to 1000 mg/kg

###

Below, each of the compounds is paired with its reported Estimated LD50 value.
# Tested on: mouse
# test: Acute toxicity in mouse (Table 10)
# Assay type: in vivo
# measurement-setup: in vivo, ip
Structures can show the parent of a compound that is named as a salt.

Consider the compound shown here: CC(=O)N1CCN(c2ccnc(N3CCCCC3)n2)CC1 [Compound 240] What is its recorded Estimated LD50?
> 1000 mg/kg

Now the compound CC(=O)c1ccc(C(=O)N(C)c2ccnc(N3CCCCC3)n2)cc1 [Compound 208]
> 1000 mg/kg

Now the compound CC1CCCN(c2nccc(N3CCCC3=O)n2)C1 (stereo not drawn) [Compound 336]
250 to 500 mg/kg

Now the compound CC1CC(C)CN(c2nccc(N3CCCC3=O)n2)C1 (stereo not drawn) [Compound 344]
250 to 500 mg/kg

Now the compound O=C1CCCN1c1ccnc(N2CCCCC2)n1 [Compound 274, hydrochloride]
250 to 500 mg/kg

Now the compound CN(C(=O)c1ccc(C=O)cc1)c1ccnc(N2CCC(c3ccccc3)CC2)n1 [Compound 152]
> 1000 mg/kg

Now the compound CN(C(=O)c1ccc2c(c1)C(=O)OC2=O)c1ccnc(N2CCC(c3ccccc3)CC2)n1 [Compound 168]
> 1000 mg/kg

Now the compound COC(=O)c1ccc(C(=O)N(C)c2ccnc(N3CCC(c4ccccc4)CC3)n2)cc1 [Compound 120]
> 1000 mg/kg

Now the compound COC(=O)c1ccc(C(=O)N(C)c2ccnc(N3CCCCC3)n2)cc1 [Compound 192]
500 to 1000 mg/kg

###

# Test system: Mouse neuroblastoma cells NS-20Y
# test: Neurite appearance in mouse neuroblastoma NS-20Y cells (Table 8);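 also: cells grown in polyornithine-coated dishes, with timing counted from the start of culture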
# Format: cell-based
# measurement-setup: 24 hour; 0.2 mM
readout-kind: The number of cells in which neurites appeared/Total number of cells

# count of solved cases: 3
>>> result("CN(C(=O)c1ccc2c(c1)C(=O)OC2=O)c1ccnc(N2CCC(c3ccccc3)CC2)n1 [Compound 168]")
"3/50"
>>> result("COC(=O)c1ccc(C(=O)N(C)c2ccnc(N3CCCCC3)n2)cc1 [Compound 192]")
"5/50"
>>> result("O=C1CCCN1c1ccnc(N2CCOCC2)n1 [Compound 392]")
"10/50"

Consider the molecule shown here: O=C1CCCN1c1ccnc(N2CCN(Cc3ccccc3)CC2)n1 [Compound 424] What is its recorded The number of cells in which neurites appeared/Total number of cells?
5/50

Now the molecule CN1CCN(c2nccc(N3CCCC3=O)n2)CC1 [Compound 408]
7/50

Now the molecule O=C1CCCN1c1ccnc(N2CCC(Cc3ccccc3)CC2)n1 [Compound 368]
6/50

Now the molecule CC(=O)N1CCN(c2ccnc(N3CCC(c4ccccc4)CC3)n2)CC1 [Compound 256]
3/50

Now the molecule CN(C(=O)c1ccccc1)c1ccnc(N2CCc3ccccc32)n1 [Compound 104]
3/50

###

# System: mouse
# test: Acute toxicity in mouse (Table 10)
# Assay type: in vivo
# measurement-setup: i.p., 24 hours after administration
Below, each of the compounds is paired with its reported Estimated LD50 value.

>>> result("O=C1CCCN1c1ccnc(N2CCNCC2)n1")
"> 500 mg/kg"

Value wanted: Estimated LD50 (mouse) of entry CN(C(=O)c1ccccc1)c1ccnc(N2CCc3ccccc32)n1
> 1000 mg/kg

Now the compound O=C1CCCN1c1ccnc(N2CCN(Cc3ccccc3)CC2)n1
> 500 mg/kg

Now the compound O=C1CCCN1c1ccnc(N2CCCc3ccccc32)n1
> 500 mg/kg

Now the compound CN(C(=O)c1ccc(C(F)(F)F)cc1)c1ccnc(N2CCC(c3ccccc3)CC2)n1.Cc1ccc(S(=O)(=O)O)cc1
> 1000 mg/kg

Now the compound O=C1CCCN1c1ccnc(N2CCSCC2)n1
> 500 mg/kg

Now the compound CN1CCN(c2nccc(N3CCCC3=O)n2)CC1
> 500 mg/kg

Now the compound CN(C(=O)c1ccc(C#N)cc1)c1ccnc(N2CCC(c3ccccc3)CC2)n1
> 1000 mg/kg

Now the compound CN(C(=O)c1ccc(C=O)cc1)c1ccnc(N2CCCCC2)n1
> 1000 mg/kg

Now the compound O=C1CCCN1c1ccnc(N2CCCCC2)n1
> 500 mg/kg

Now the compound O=C1CCCCN1c1ccnc(N2CCCCC2)n1
> 1000 mg/kg

Now the compound CN(C(=O)c1ccc(O)cc1)c1ccnc(N2CCC(c3ccccc3)CC2)n1
> 1000 mg/kg

Now the compound CC(=O)N1CCN(c2ccnc(N3CCC(c4ccccc4)CC3)n2)CC1
> 1000 mg/kg

Now the compound CN(C(=O)c1ccc(S(=O)(=O)F)cc1)c1ccnc(N2CCC(c3ccccc3)CC2)n1
> 1000 mg/kg

Now the compound CN(C)c1nccc(N2CCCC2=O)n1
> 500 mg/kg

Now the compound O=CN1CCN(c2ccnc(N3CCCCC3)n2)CC1
> 1000 mg/kg

Now the compound O=C1CCCN1c1ccnc(N2CCC(c3ccccc3)CC2)n1
> 1000 mg/kg

Source: patent US5358945A
